# assay method text: Metabolic stability in anesthetized cynomolgus monkey plasma after 180 mins postinjection
# Type: ADME, organism-based, Macaca fascicularis
# setup conditions: read-out: Stability
measurement label: remaining at 3 h (%)

>>> print(df.to_string())
                                   molecule  measurement_label  measurement_unit  measured_value
0  O=C(OCC[18F])C1C2CCC(CC1c1cccc(/C=C\I)c1)N2 (stereo unspecified)   remaining at 3 h                 %              13

----------
# System: Pons
# assay method text: Drug uptake in anesthetized cynomolgus monkey brain pons after 6.5 mins postinjection
# Assay type: ADME, organism-based, Macaca fascicularis
# setup conditions: in vivo
The entries below come with measured Drug uptake values attached.
measurement label: Drug uptake

>>> df
                                   molecule  measurement_label  measured_value
0  O=C(OCC[18F])C1C2CCC(CC1c1cccc(/C=C\I)c1)N2 (stereo not given)        Drug uptake            2.02
1  O=C(OCCC[18F])C1C2CCC(CC1c1cccc(/C=C\I)c1)N2 (stereo not given)        Drug uptake            2.85
2  O=C(OCCC[18F])C1C2CCC(CC1c1cccc(/C=C\Br)c1)N2 (stereo not given)        Drug uptake             3.6
3  O=C(OCC[18F])C1C2CCC(CC1c1cccc(/C=C\Br)c1)N2 (stereo not given)        Drug uptake            2.79
4  O=C(OCC[18F])C1C2CCC(CC1c1ccc(/C=C\I)cc1)N2 (stereo not given)        Drug uptake            1.36

----------
The entries below come with measured Ratio values attached.
# assay method text: Ratio of drug uptake in pons to cerebellum in anesthetized cynomolgus monkey after 85 mins postinjection
# Format: ADME, organism-based, Macaca fascicularis
# setup conditions: in vivo
measurement label: Ratio

In [3]: df
Out[3]:
                                   compound  measured_value
0  O=C(OCC[18F])C1C2CCC(CC1c1cccc(/C=C\Br)c1)N2 (centres undefined)             1.4
1  O=C(OCC[18F])C1C2CCC(CC1c1cccc(/C=C\I)c1)N2 (centres undefined)             1.1
2  O=C(OCCC[18F])C1C2CCC(CC1c1cccc(/C=C\I)c1)N2 (centres undefined)             1.1
3  O=C(OCCC[18F])C1C2CCC(CC1c1cccc(/C=C\Br)c1)N2 (centres undefined)             1.2

----------
The entries below come with measured Drug uptake values attached.
# Tested on: Midbrain
# assay method text: Drug uptake in anesthetized cynomolgus monkey brain midbrain after 6.5 mins postinjection
# Type: ADME, organism-based, Macaca fascicularis
# Set-up: unit not given here
# setup conditions: in vivo
measurement label: Drug uptake

In [3]: df
Out[3]:
                                   molecule  measured_value
0  O=C(OCC[18F])C1C2CCC(CC1c1ccc(/C=C\I)cc1)N2 (stereo not given)            1.74
1  O=C(OCC[18F])C1C2CCC(CC1c1cccc(/C=C\I)c1)N2 (stereo not given)            2.99
2  O=C(OCCC[18F])C1C2CCC(CC1c1cccc(/C=C\I)c1)N2 (stereo not given)            3.41
3  O=C(OCCC[18F])C1C2CCC(CC1c1cccc(/C=C\Br)c1)N2 (stereo not given)            4.35
4  O=C(OCC[18F])C1C2CCC(CC1c1cccc(/C=C\Br)c1)N2 (stereo not given)            2.99

----------
The entries below come with measured Ratio values attached.
# assay method text: Ratio of drug uptake in medulla to cerebellum in anesthetized cynomolgus monkey after 9.5 mins postinjection
# Assay type: ADME, organism-based, Macaca fascicularis
# setup conditions: in vivo
measurement label: Ratio

In [3]: df
Out[3]:
                                   compound  measured_value
0  O=C(OCCC[18F])C1C2CCC(CC1c1cccc(/C=C\I)c1)N2 (centres undefined)             0.9
1  O=C(OCC[18F])C1C2CCC(CC1c1cccc(/C=C\Br)c1)N2 (centres undefined)             1.2
2  O=C(OCCC[18F])C1C2CCC(CC1c1cccc(/C=C\Br)c1)N2 (centres undefined)               1
3  O=C(OCC[18F])C1C2CCC(CC1c1cccc(/C=C\I)c1)N2 (centres undefined)             0.9

----------
# System: Caudate
# assay method text: Drug uptake in anesthetized cynomolgus monkey brain caudate after 175 mins postinjection
# Type: ADME, organism-based, Macaca fascicularis, Caudate nucleus
# setup conditions: in vivo
measurement label: Drug uptake

In [3]: df
Out[3]:
                                   compound  experimental_target  measured_value
0  O=C(OCCC[18F])C1C2CCC(CC1c1cccc(/C=C\Br)c1)N2 (stereo not given)              Caudate            4.04
1  O=C(OCC[18F])C1C2CCC(CC1c1cccc(/C=C\Br)c1)N2 (stereo not given)              Caudate            3.29
2  O=C(OCCC[18F])C1C2CCC(CC1c1cccc(/C=C\I)c1)N2 (stereo not given)              Caudate            2.83
3  O=C(OCC[18F])C1C2CCC(CC1c1ccc(/C=C\I)cc1)N2 (stereo not given)              Caudate               3
4  O=C(OCC[18F])C1C2CCC(CC1c1cccc(/C=C\I)c1)N2 (stereo not given)              Caudate            2.43

----------
The entries below come with measured Drug uptake values attached.
# Test system: Midbrain
# assay method text: Drug uptake in anesthetized cynomolgus monkey brain midbrain after 18.5 mins postinjection
# Type: ADME, organism-based, Macaca fascicularis
# Design: unit not given here
# setup conditions: in vivo
measurement label: Drug uptake

In [3]: df
Out[3]:
                                   molecule  measured_value
0  O=C(OCC[18F])C1C2CCC(CC1c1cccc(/C=C\Br)c1)N2 (stereo not given)            4.16
1  O=C(OCCC[18F])C1C2CCC(CC1c1cccc(/C=C\I)c1)N2 (stereo not given)            4.65
2  O=C(OCCC[18F])C1C2CCC(CC1c1cccc(/C=C\Br)c1)N2 (stereo not given)            5.49
3  O=C(OCC[18F])C1C2CCC(CC1c1ccc(/C=C\I)cc1)N2 (stereo not given)            2.78
4  O=C(OCC[18F])C1C2CCC(CC1c1cccc(/C=C\I)c1)N2 (stereo not given)            4.37

----------
The entries below come with measured Drug uptake values attached.
# System: Thalamus
# assay method text: Drug uptake in anesthetized cynomolgus monkey brain thalamus after 215 mins postinjection
# Type: ADME, organism-based, Macaca fascicularis
# Set-up: unit not given here
# setup conditions: in vivo
measurement label: Drug uptake

>>> print(df.to_string())
                                   compound  measured_value
0  O=C(OCCC[18F])C1C2CCC(CC1c1cccc(/C=C\I)c1)N2 (stereo not given)            3.02
1  O=C(OCC[18F])C1C2CCC(CC1c1ccc(/C=C\I)cc1)N2 (stereo not given)            3.47
2  O=C(OCC[18F])C1C2CCC(CC1c1cccc(/C=C\I)c1)N2 (stereo not given)            2.38
3  O=C(OCCC[18F])C1C2CCC(CC1c1cccc(/C=C\Br)c1)N2 (stereo not given)            3.62
4  O=C(OCC[18F])C1C2CCC(CC1c1cccc(/C=C\Br)c1)N2 (stereo not given)            2.92

----------
# Tested on: Pons
# assay method text: Drug uptake in anesthetized cynomolgus monkey brain pons after 115 mins postinjection
# Format: ADME, organism-based, Macaca fascicularis
# setup conditions: in vivo
measurement label: Drug uptake

In [3]: df
Out[3]:
                                   compound  measurement_label  measured_value
0  O=C(OCCC[18F])C1C2CCC(CC1c1cccc(/C=C\I)c1)N2 (stereo not given)        Drug uptake            3.98
1  O=C(OCC[18F])C1C2CCC(CC1c1ccc(/C=C\I)cc1)N2 (stereo not given)        Drug uptake            3.65
2  O=C(OCC[18F])C1C2CCC(CC1c1cccc(/C=C\I)c1)N2 (stereo not given)        Drug uptake            2.86
3  O=C(OCCC[18F])C1C2CCC(CC1c1cccc(/C=C\Br)c1)N2 (stereo not given)        Drug uptake             4.2
4  O=C(OCC[18F])C1C2CCC(CC1c1cccc(/C=C\Br)c1)N2 (stereo not given)        Drug uptake            4.51
